experiment: Time course of conversion to indirubin in FaSSIF at 37° C.; type: physicochemical; conditions: FaSSIF 37° C., 15 min
Observed Property: starting material (prodrug compound) (%)

Examples with answers:
>  <Compound>
CN(C)CCN(C)CN1C(=O)/C(=C2\Nc3ccccc3C2=O)c2ccccc21 [drawing 253]

>  <starting material (prodrug compound) (%)>
0

$$$$
>  <Compound>
CNCCNC(=O)N1C(=O)/C(=C2\Nc3ccccc3C2=O)c2ccccc21.Cl [drawing 264]

>  <starting material (prodrug compound) (%)>
100

$$$$

P. O=C1/C(=C2/C(=O)N(CN3CCCC3)c3ccccc32)Nc2ccccc21 [drawing 255]
Q. CN1CCN(CN2C(=O)/C(=C3\Nc4ccccc4C3=O)c3ccccc32)CC1 [drawing 265]
Field: lower recorded starting material (prodrug compound) (choose P or Q ) Indicate which entry you chose by stating its label.
P

P. CCN(CC)CN1C(=O)/C(=C2\Nc3ccccc3C2=O)c2ccccc21 [drawing 252]
Q. O=C1/C(=C2/C(=O)N(C(=O)NC3CCOCC3)c3ccccc32)Nc2ccccc21 [drawing 263]
R. CC(=O)N1CCN(CN2C(=O)/C(=C3\Nc4ccccc4C3=O)c3ccccc32)CC1 [drawing 258]
Arrange the 3 compounds by rising starting material (prodrug compound), starting with the smallest. Form entry: ranked labels (order as requested).
P, R, Q

----------
Target: UniProt:P35869
Sequence (P35869 11-848): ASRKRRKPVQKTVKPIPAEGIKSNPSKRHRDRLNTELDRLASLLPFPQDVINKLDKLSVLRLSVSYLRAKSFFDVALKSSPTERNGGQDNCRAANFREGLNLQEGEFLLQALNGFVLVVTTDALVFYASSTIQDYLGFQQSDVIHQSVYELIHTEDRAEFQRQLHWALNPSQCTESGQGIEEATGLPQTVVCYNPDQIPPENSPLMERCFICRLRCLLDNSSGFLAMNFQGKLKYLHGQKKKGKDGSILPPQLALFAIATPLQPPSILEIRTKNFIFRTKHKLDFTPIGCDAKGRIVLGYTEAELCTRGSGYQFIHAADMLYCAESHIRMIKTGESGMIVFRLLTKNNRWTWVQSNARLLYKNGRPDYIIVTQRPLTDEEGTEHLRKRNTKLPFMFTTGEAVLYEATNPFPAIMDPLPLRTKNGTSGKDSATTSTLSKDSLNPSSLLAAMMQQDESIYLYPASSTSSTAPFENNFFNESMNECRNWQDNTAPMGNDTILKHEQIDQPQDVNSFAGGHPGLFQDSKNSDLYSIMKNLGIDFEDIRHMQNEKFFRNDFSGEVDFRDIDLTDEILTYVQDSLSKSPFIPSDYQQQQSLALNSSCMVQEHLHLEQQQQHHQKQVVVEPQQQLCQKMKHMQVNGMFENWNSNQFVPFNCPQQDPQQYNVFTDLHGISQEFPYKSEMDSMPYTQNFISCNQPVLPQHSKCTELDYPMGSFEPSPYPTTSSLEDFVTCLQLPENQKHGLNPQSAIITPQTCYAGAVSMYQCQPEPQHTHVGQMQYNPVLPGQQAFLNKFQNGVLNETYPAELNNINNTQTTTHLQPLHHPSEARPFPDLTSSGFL
Assay: AhR/arnt-luciferase reporter assay in human Huh7 cells
Observed Property: EC50 (nM)
Give the quantity in nM, number only.

Please report the recorded EC50 for O=C1/C(=C2/C(=O)N(CO)c3ccccc32)Nc2ccccc21 [Compound 8] .
71.5

----------
assay: Time course of conversion to indirubin in FaSSIF at 37° C.; assay type: physicochemical; conditions: FaSSIF 37° C. 24 h
Observed Property: starting material (prodrug compound) (%)

Examples with answers:
>  <Molecule>
O=C1/C(=C2/C(=O)N(CO)c3ccccc32)Nc2ccccc21 [drawing 259]

>  <Units Label>
%

>  <Meas Value>
73

$$$$
>  <Molecule>
O=C1/C(=C2/C(=O)N(COS(=O)(=O)O)c3ccccc32)Nc2ccccc21 [drawing 262]

>  <Units Label>
%

>  <Meas Value>
0

$$$$
>  <Molecule>
CCN(CC)CN1C(=O)/C(=C2\Nc3ccccc3C2=O)c2ccccc21 [drawing 252]

>  <Units Label>
%

>  <Meas Value>
0

$$$$
>  <Molecule>
CN(C)CCN(C)CN1C(=O)/C(=C2\Nc3ccccc3C2=O)c2ccccc21 [drawing 253]

>  <Units Label>
%

>  <Meas Value>
0

$$$$

1. O=C1/C(=C2/C(=O)N(CN3CCC3)c3ccccc32)Nc2ccccc21 [drawing 266]
2. CN(C)C1CCN(CN2C(=O)/C(=C3\Nc4ccccc4C3=O)c3ccccc32)CC1 [drawing 256]
Of the two listed items, which has the higher starting material (prodrug compound)? First: 1 Second: 2 Indicate which entry you chose by stating its label.
1
(1: 62%, 2: 0%)

----------
experiment: Time course of conversion to indirubin in FaSSIF at 37° C.; format: physicochemical; details: FaSSIF 37° C., 2 h
Observed Property: starting material (prodrug compound) (%)

Examples with answers:
>  <Compound>
O=C1/C(=C2/C(=O)N(CN3CCC(F)(F)CC3)c3ccccc32)Nc2ccccc21 [drawing 260]

>  <Meas Value>
51

$$$$
>  <Compound>
CN1CCN(CN2C(=O)/C(=C3\Nc4ccccc4C3=O)c3ccccc32)CC1 [drawing 265]

>  <Meas Value>
68

$$$$
>  <Compound>
CN(C)C1CCN(CN2C(=O)/C(=C3\Nc4ccccc4C3=O)c3ccccc32)CC1 [drawing 256]

>  <Meas Value>
22

$$$$
>  <Compound>
O=C1/C(=C2/C(=O)N(CN3CCOCC3)c3ccccc32)Nc2ccccc21 [drawing 261]

>  <Meas Value>
65

$$$$
>  <Compound>
O=C1/C(=C2/C(=O)N(CO)c3ccccc32)Nc2ccccc21 [drawing 259]

>  <Meas Value>
79

$$$$

A. CNCCNC(=O)N1C(=O)/C(=C2\Nc3ccccc3C2=O)c2ccccc21.Cl [drawing 264]
B. O=C1/C(=C2/C(=O)N(CN3CCCC3)c3ccccc32)Nc2ccccc21 [drawing 255]
Field: lower recorded starting material (prodrug compound) (choose A or B ) Indicate which entry you chose by stating its label.
B
(B: 0%, A: 100%)

1. CCN(CC)CN1C(=O)/C(=C2\Nc3ccccc3C2=O)c2ccccc21 [drawing 252]
2. O=C1/C(=C2/C(=O)N(CN3CCC3)c3ccccc32)Nc2ccccc21 [drawing 266]
Field: lower recorded starting material (prodrug compound) (choose 1 or 2 ) Indicate which entry you chose by stating its label.
1

----------
test: Stability of indirubin prodrugs in simulated fluids (FaSSIF, FaSSGF), 24 h at 37° C., UPLC-MS; type: physicochemical; conditions: FaSSGF 37° C. 24 h
Observed Property: Fraction (percent) of starting material (SM) (%)

>  <Compound>
O=C1/C(=C2/C(=O)N(C(=O)NCCNS(=O)(=O)c3ccc([N+](=O)[O-])cc3)c3ccccc32)Nc2ccccc21

>  <Units Label>
%

>  <Meas Value>
100

$$$$
>  <Compound>
Cl.NCCNC(=O)N1C(=O)/C(=C2\Nc3ccccc3C2=O)c2ccccc21

>  <Units Label>
%

>  <Meas Value>
100

$$$$
>  <Compound>
CN1CCC(NC(=O)N2C(=O)/C(=C3\Nc4ccccc4C3=O)c3ccccc32)CC1=O (centres unmarked)

>  <Units Label>
%

>  <Meas Value>
100

$$$$
>  <Compound>
O=C1/C(=C2/C(=O)N(C(=O)NCCNS(=O)(=O)C(F)(F)F)c3ccccc32)Nc2ccccc21

>  <Units Label>
%

>  <Meas Value>
93

$$$$
>  <Compound>
O=C1/C(=C2/C(=O)N(CSc3ccccc3)c3ccccc32)Nc2ccccc21

>  <Units Label>
%

>  <Meas Value>
100

$$$$

----------
biological target: AhR (Rattus norvegicus); assay: AhR/arnt-luciferase reporter assay in rat H4IIE cells
Sequence (P41738 10-853): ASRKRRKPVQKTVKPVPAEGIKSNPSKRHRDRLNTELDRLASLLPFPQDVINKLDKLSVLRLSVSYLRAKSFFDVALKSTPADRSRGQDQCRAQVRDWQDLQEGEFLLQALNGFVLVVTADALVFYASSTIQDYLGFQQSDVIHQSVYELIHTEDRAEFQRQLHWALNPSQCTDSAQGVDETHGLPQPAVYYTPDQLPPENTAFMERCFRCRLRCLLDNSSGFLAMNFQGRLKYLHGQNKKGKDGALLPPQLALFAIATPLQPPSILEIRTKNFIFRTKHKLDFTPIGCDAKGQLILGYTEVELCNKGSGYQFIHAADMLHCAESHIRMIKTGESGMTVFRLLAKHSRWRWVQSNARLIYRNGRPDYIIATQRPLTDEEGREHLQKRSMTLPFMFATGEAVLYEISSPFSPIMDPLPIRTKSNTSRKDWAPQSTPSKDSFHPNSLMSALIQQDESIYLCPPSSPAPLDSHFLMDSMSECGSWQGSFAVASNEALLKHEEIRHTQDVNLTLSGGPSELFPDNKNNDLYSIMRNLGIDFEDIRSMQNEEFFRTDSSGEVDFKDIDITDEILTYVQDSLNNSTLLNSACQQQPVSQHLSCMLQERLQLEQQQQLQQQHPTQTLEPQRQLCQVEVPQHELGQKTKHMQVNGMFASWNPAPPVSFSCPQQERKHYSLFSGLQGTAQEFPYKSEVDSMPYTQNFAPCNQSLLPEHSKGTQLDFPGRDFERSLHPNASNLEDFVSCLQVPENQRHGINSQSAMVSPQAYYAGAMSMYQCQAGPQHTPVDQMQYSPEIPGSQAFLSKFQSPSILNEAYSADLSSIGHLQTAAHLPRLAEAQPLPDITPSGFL
Observed Property: EC50 (nM)
Give the quantity in nM, number only.

Please report the recorded EC50 for O=C1/C(=C2/C(=O)N(CO)c3ccccc32)Nc2ccccc21 [Compound 8] .
25.6

----------
experiment: Time course of conversion to indirubin in FaSSIF at 37° C.;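 also: test compound, about 1-3 mg in 5 mL FaSSIF, sampled and analysed by UPLC-MS with PDA UV (210-400 nm), QDa mass and evaporative light scattering detection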; format: physicochemical; details: FaSSIF 37° C., 2 h
Observed Property: indirubin methylene alcohol (%)

Examples with answers:
>  <Compound>
O=C1/C(=C2/C(=O)N(C(=O)NC3CCOCC3)c3ccccc32)Nc2ccccc21 [drawing 263]

>  <Observed Property>
indirubin methylene alcohol

>  <Units Label>
%

>  <Meas Value>
1

$$$$
>  <Compound>
O=C1/C(=C2/C(=O)N(CN3CCC3)c3ccccc32)Nc2ccccc21 [drawing 266]

>  <Observed Property>
indirubin methylene alcohol

>  <Units Label>
%

>  <Meas Value>
4

$$$$

1. O=C1/C(=C2/C(=O)N(CN3CCCC3)c3ccccc32)Nc2ccccc21 [drawing 255]
2. CN(C)CCN(C)CN1C(=O)/C(=C2\Nc3ccccc3C2=O)c2ccccc21 [drawing 253]
Field: lower recorded indirubin methylene alcohol (choose 1 or 2 ) Indicate which entry you chose by stating its label.
1

1. O=C1/C(=C2/C(=O)N(CN3CCOCC3)c3ccccc32)Nc2ccccc21 [drawing 261]
2. CN1CCN(CN2C(=O)/C(=C3\Nc4ccccc4C3=O)c3ccccc32)CC1 [drawing 265]
Of the two listed items, which has the higher indirubin methylene alcohol? First: 1 Second: 2 Indicate which entry you chose by stating its label.
1

P. O=C1/C(=C2/C(=O)N(CN3CCC(F)(F)CC3)c3ccccc32)Nc2ccccc21 [drawing 260]
Q. O=C1/C(=C2/C(=O)N(COS(=O)(=O)O)c3ccccc32)Nc2ccccc21 [drawing 262]
Of the two listed items, which has the higher indirubin methylene alcohol? First: P Second: Q Indicate which entry you chose by stating its label.
Q
(Q: 83%, P: 0%)
